# test_system: CXCR4 (Homo sapiens, UniProt P61073)
# Sequence (P61073 whole entry): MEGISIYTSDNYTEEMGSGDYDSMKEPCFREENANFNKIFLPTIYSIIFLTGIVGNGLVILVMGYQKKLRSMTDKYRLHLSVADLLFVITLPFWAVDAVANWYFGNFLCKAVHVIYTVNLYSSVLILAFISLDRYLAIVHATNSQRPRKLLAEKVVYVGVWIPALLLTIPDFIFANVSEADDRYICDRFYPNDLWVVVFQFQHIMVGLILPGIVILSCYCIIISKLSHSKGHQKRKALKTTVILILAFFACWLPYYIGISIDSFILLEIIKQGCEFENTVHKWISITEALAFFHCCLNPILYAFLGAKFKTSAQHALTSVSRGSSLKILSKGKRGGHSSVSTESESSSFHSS
# test_name: CXCR4 12G5 antibody competition assay on SupT1 cells
# Format: binding
Where no end group is shown, it is not given here.
measured_endpoint: pIC50
Answers are plain numbers, as −log10 of the molar value.

Consider H-LVRYTKKVPQVSTPTL [EPI-X4] . Its measured pIC50 is 5.49

The origin of these recorded values is paper PMC8463264.
